# Test system: houseflies (Musca domestica)
# procedure-details: Synergistic action on houseflies, dip experiment
# Format: in vivo
# test-settings: single substance; active ingredient concentration in %
reported-metric: LD 50 after 4 hours (%)
Give bare numbers, in %.

* ClC(Cn1cncn1)c1ccccc1 (stereo not drawn) [No. 1] | 0.085

I would be grateful if you could provide LD 50 after 4 hours for each of the following entries.
1. Cc1nc(N(C)C)nc(OC(=O)N(C)C)c1C [Pirimicarb, reference compound]
2. Clc1ccc(C=Cn2cncn2)c(Cl)c1

[0.05, 0.2]

###

Exercise: for every item that follows, state its recorded LD 50 after 4 hours.
# System: houseflies (Musca domestica)
# procedure-details: Synergistic action on houseflies, dip experiment
# Assay type: in vivo
# test-settings: single substance; active ingredient concentration in %

Answered cases to consult:
* ClC(Cn1cncn1)c1ccccc1 (stereo not drawn) [No. 2] | > 0.2%
* C(=Cc1ccccc1)Cn1cncn1 | > 0.2%

Let us move to another entry and its LD 50 after 4 hours.
Which LD 50 after 4 hours is listed for `c1ccc(CCCn2cncn2)cc1` ?
> 0.2%

The values you see were collected from patent US4315017A.
